All values here come from ChEMBL document CHEMBL3763044.

Experiment summary: Half life in Sprague-Dawley rat at 5 mg/kg, iv and 50 mg/kg, po by LC/MS/MS analysis
Format: ADME, organism-based
Run conditions: in vivo
Quantity kind: half-life
Give me the value, and tack the unit on after it.

Record O=C(Cc1ccc(F)c(Cl)c1)Nc1cnc(C(=O)NO)c(O)c1CO , field half-life: 43.8 min

* * *

Experiment summary: Oral bioavailability in Sprague-Dawley rat at 50 mg/kg after 24 hrs by LC/MS/MS analysis
Format: ADME, organism-based
Run conditions: in vivo
Quantity kind: bioavailability (%)
Numbers only, in %.

Record O=C(Cc1ccc(F)c(Cl)c1)Nc1cnc(C(=O)NO)c(O)c1CO , field bioavailability: 25
